What protein stability index was measured for each of the following?
B1: ZNF263 (parent)
chain: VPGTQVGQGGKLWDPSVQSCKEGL

Variants of: B1
Assay: protein stability index of a GFP-peptide fusion (GPS, HEK-293T) (PSI 1-6); higher = more stable;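 also: lentivirally expressed fusions sorted by FACS into six bins by GFP to DsRed ratio, PSI derived from sequencing read proportions per bin multiplied by bin number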
Details: c terminus: a fixed tail appended
Numbers only.

Sample records with protein stability index:
* V17G | 3.99
* S19M | 3.69
* P2C | 3.61

For each of the items listed, what is its protein stability index?
1. P2S
2. T4I
3. T4C
4. C20G
5. D14G
6. L12C
7. G9E
8. P15N

[3.55, 3.42, 4, 4.74, 4.1, 3.94, 4.61, 4.13]

For each of the items listed, what is its protein stability index?
1. D14Q
2. E22S
3. W13H

4.09
3.95
4.66

For each of the items listed, what is its protein stability index?
1. G7Y
2. V17N
3. Q18K
4. W13F
5. K21S
6. C20Q
7. P2M

3.86
4.07
4.39
4.59
3.72
4.6
4.26
